Data provenance: ChEMBL document CHEMBL1125629

Assay: Second order rate constant for acylation( ka/Ks)
Type: ADME
Give measured Ratio for each item. Keep answers brief.
Number only, in M⁻¹ s⁻¹; omit the unit.

For the compound shown here, C=C1C[C@H](c2ccccc2)CC(=O)O1 (stereo in doubt; 1 (S)) , give the reported Ratio.
38000

What does the data say about its Ratio? Entry: `CC(=O)C[C@H](CC(=O)Oc1ccc(C#N)cc1)c1ccccc1`
2000

So what's the measured Ratio for this one? C=C1C[C@H](c2ccccc2)CC(=O)O1 (stereo in doubt; 1 (R))
12000

Dear colleague, I am looking for the recorded Ratio of the following compound: `CC(=O)C[C@@H](CC(=O)Oc1ccc(C#N)cc1)c1ccccc1`
11000
